test system: KARN cells (Jurkat 2C4); assay: cells; settings: Homo sapiens, read-out: Karn EC50 nM 0.1% NHS
MEASURED_PARAMETER: EC50 (nM)
Numbers only, in nM.

COMPOUND	TESTED_SYSTEM	MEAS_VALUE
Cc1ccc2cc(-c3c[nH]c([C@H](CCCCCC(=O)c4ncco4)NC4CCN(C)CC4)n3)ccc2n1 [Example 78]	KARN cells (Jurkat 2C4)	660
Cc1ccc2cc(-c3c[nH]c([C@H](CCCCCC(=O)c4ncco4)NC4CCOCC4)n3)ccc2n1 [Example 79]	KARN cells (Jurkat 2C4)	1000
COc1cc2nc(C)ccc2cc1-c1cnc([C@H](CCCCCC(=O)c2ncco2)NC(=O)C2CN(C)C2)o1 [Example 100]	KARN cells (Jurkat 2C4)	19

List the reported EC50 of each compound below.
1. COc1cc2nc(C)ccc2cc1-c1cnc([C@H](CCCCCC(=O)c2ncco2)NC(=O)CN(C)C)[nH]1 [Example 89]
2. COc1cc2nc(C)ccc2cc1-c1cnc([C@H](CCCCCC(=O)c2ncco2)NC(=O)C2CCN(C)CC2)[nH]1 [Example 98]
3. Cc1ccc2cc(-c3c[nH]c([C@H](CCCCCC(=O)c4ncco4)NCc4ccccc4)n3)ccc2n1 [Example 81]
4. COc1cc2nc(C)ccc2cc1-c1cnc([C@H](CCCCCC(=O)c2ncco2)NC(=O)C2CN(C)C2)[nH]1 [Example 99]
5. CC(=O)N[C@@H](CCCCCC(=O)c1ncco1)c1ncc(-c2ccc3nc(C)ccc3c2)[nH]1 [Example 87]

[reply]
1: 13; 2: 58; 3: 430; 4: 77; 5: 43
